- System: Malme-3M
- protocolDetails: NCI tumour cell line growth inhibition, 48 h
Active and inactive are the calls of the source. Cut-off read from the data, not from the text of the source: active = GI50 up to about 1.1 µM and inactive = higher.
Provide the reported GI50 of each item.

So what's the measured GI50 for this one? `O=C(/C=C/c1ccccc1)Oc1cccc(O)c1` 19.5 µM (inactive)

Form field: reported GI50 of `CC1=C(C(=O)Nc2cccc(C(F)(F)F)c2)C(c2ccc(O)cc2)C(C(=O)Nc2cccc(C(F)(F)F)c2)=C(C)N1` 25.8 µM (inactive)

Name the recorded GI50 for `C=CCOn1c(C=C)nc2ccc(C)cc21` . 18 µM (inactive)

What measured GI50 goes with CCC1(CN(C)C)CC/C(=C\c2ccc3c(c2)OCO3)C1=O (stereo not given) ? > 100 µM (inactive)

// returns reported GI50 for input `CC/C=C/C[C@H](O[Si](C)(C)C(C)(C)C)[C@H]1C[C@H]2O[C@H]([C@@H](O)C#C[Si](C)(C)C)C[C@H]2O1` 11.9 µM (inactive)

Can you share its GI50? I mean this compound: `Cc1cccc(NC(=O)C(=O)C2C(=O)NC(=O)NC2=O)c1C` > 100 µM (inactive)

If you can, please state the reported GI50 value of `C/C(CC(O)(C(F)(F)F)C(F)(F)F)=N/Nc1ccc([N+](=O)[O-])cc1[N+](=O)[O-]` . 2.11 µM (inactive)

Param item = `CC1=C(C(=O)Nc2ccccc2C)C(c2ccc(Cl)c(Cl)c2)C(C(=O)Nc2ccccc2C)=C(C)N1` ; retrieve measured GI50. 22.5 µM (inactive)

Which measured GI50 value corresponds to CC(Cc1ccc2c(c1)OCO2)N(C)C(=O)C1=CCN(C)CC1 (stereo not given) ? > 100 µM (inactive)

Item under review: `N#Cc1c(N)c(-c2ccc(Cl)cc2)c(F)c2ccccc12` . Reported GI50? > 100 µM (inactive)

* * *

- Test system: HCT-15
- protocolDetails: NCI tumour cell line growth inhibition, 48 h
measuredEndpoint: GI50

Any idea what GI50 was measured for `O=c1c(Cc2ccccc2Cc2c(O)oc3ccccc3c2=O)c(O)oc2ccccc12` ? > 100 µM

Data request, read-out GI50, for CC12Nc3c(Cl)cc(Cl)cc3N1C(=O)c1ccccc12 (stereo unspecified) > 100 µM

// query GI50 value for entry `COc1ccc(NC(=O)C(C#N)=C(SC)SC)cc1` > 100 µM

Using the record for CCC1CCC2c3c([nH]c4ccccc34)C3C(=O)N(c4ccc(OC)cc4)C(=O)C3C2C1 (stereo unspecified) , report its GI50. 35.1 µM

Any idea what its GI50 is? The compound is CC(=O)N(C)SCC(NC(=O)C(Cc1ccccc1)NC(=O)OCc1ccccc1)C(=O)NC(Cc1ccccc1)C(=O)NC(Cc1cn(C=O)c2ccccc12)C(=O)NC(CCCCNC(=O)OCc1ccccc1)C(=O)NC(C(=O)NC(CSN(C)C(C)=O)C(=O)NO)C(C)OCc1ccccc1 (stereo unspecified) > 100 µM

I'd like to know its GI50. The compound in question is `Cc1ccccc1-c1c(N)nc(NC#N)nc1C(=O)Nc1ccccc1` > 100 µM

What measured GI50 goes with `Cc1n[nH]c(=O)n1/N=C\CC/C=N\n1c(C)n[nH]c1=O` ? > 100 µM

Suppose we examine the compound `CCOC(=N)n1c(=O)n(C2=NCCN2)c2ccccc21` ; what GI50 value has been reported? > 100 µM

Reported GI50 for `C[S+](C)CCOC(=O)C(=[N+]=[N-])c1ccc([N+](=O)[O-])cc1` : what is it? > 100 µM

For NC(Cc1cc(I)c(O)c(I)c1)C(=O)O (stereo unspecified) , what is its reported GI50? 307 µM

What GI50 value was documented for this compound, `CCCN(CCC)C(=S)N/N=C(/C)c1ccccc1O` ? 3.48 µM
